target: SARS-CoV-2 Main Protease (SARS-CoV-2) (UniProt P0DTD1); details: 20.0 µM

{"Molecule": "Cc1ccncc1NC(=O)Cc1cc(Cl)c2c(c1)OCCO2", "Display unit": "%", "inhibition": 9.83}
{"Molecule": "COc1cccc(N2CCN(C(=O)c3cc(=O)[nH]c4ccccc34)CC2)c1", "Display unit": "%", "inhibition": 78.5}
{"Molecule": "Cc1cc(C)cc(NC(=O)Cn2cncc2C)c1", "Display unit": "%", "inhibition": -2.21}
{"Molecule": "CC(C)CCNC(=O)C(CC(C)C)NC(=O)C1OC1C(=O)O (configuration not stated)", "Display unit": "%", "inhibition": 0.736}
{"Molecule": "Cc1cc2c(cc1C)[C@H](C(=O)Nc1cncnc1-n1cccn1)CO2 (stereo in doubt)", "Display unit": "%", "inhibition": -1.2}
{"Molecule": "O=C(CCNC(=O)c1c[nH]c2ccccc12)Nc1ccc(-n2cnc3ccccc32)cc1", "Display unit": "%", "inhibition": -3.48}
{"Molecule": "N#CC(C(=O)Nc1ccccc1)C(=O)c1cccc(Cl)c1 (configuration not stated)", "Display unit": "%", "inhibition": 24.1}
{"Molecule": "Cc1cccc(C)c1NC(=O)CN1C(=O)C(=O)c2ccccc21", "Display unit": "%", "inhibition": -5.56}
{"Molecule": "CC(C)C[C@@H]1CN(C(=O)CCl)CCN1Cc1cccc(Cl)c1 (stereo in doubt)", "Display unit": "%", "inhibition": 99.2}
{"Molecule": "O=C(CCl)N1CCN(C2(c3cccc(Cl)c3)CC2)CC1", "Display unit": "%", "inhibition": 55.7}
{"Molecule": "O=C(NCCOc1ccccc1)c1cc(=O)[nH]c2ccccc12", "Display unit": "%", "inhibition": 12.7}
{"Molecule": "C=CC(=O)N(c1ccc(C(C)(C)C)cc1)C(C(=O)NC(C)(C)C)c1cncc(OC)c1C (configuration not stated)", "Display unit": "%", "inhibition": 8.6}
{"Molecule": "CO[C@@H](C)C(=O)Nc1cnccc1C (stereo in doubt)", "Display unit": "%", "inhibition": 1.23}
{"Molecule": "Cc1ccncc1NC(=O)CC(O)C1CC1 (configuration not stated)", "Display unit": "%", "inhibition": -48}
{"Molecule": "Cc1ccc(C)c(N(C)C(=O)Cc2cnn(C)c2C)c1", "Display unit": "%", "inhibition": 7.75}
{"Molecule": "O=C(c1ccccc1)N1CCN(C(=O)C2CCOCC2)CC1", "Display unit": "%", "inhibition": 2.9}
{"Molecule": "O=C(c1cc(=O)[nH]c2ccccc12)N1CCN(c2ccccc2F)CC1", "Display unit": "%", "inhibition": 50.7}
{"Molecule": "O=C(c1cc(=O)[nH]c2cc(F)ccc12)N1CCN(S(=O)(=O)c2ccccc2)CC1", "Display unit": "%", "inhibition": 12.6}
{"Molecule": "Cc1ccncc1NC(=O)Cc1cccc(OC(F)(F)F)c1", "Display unit": "%", "inhibition": -3.16}
{"Molecule": "O=C(c1cc(=O)[nH]c2ccc(F)cc12)N1CCN(S(=O)(=O)c2ccc(Cl)cc2)CC1", "Display unit": "%", "inhibition": -1.84}
{"Molecule": "CC(NC(=O)CCl)c1cc(Cl)cc(-c2ccc(S(N)(=O)=O)cc2)c1 (configuration not stated)", "Display unit": "%", "inhibition": 98.4}
{"Molecule": "O=C(Nc1cccnc1)N(CCN1CCOCC1)c1cccc(Cl)c1", "Display unit": "%", "inhibition": 24.4}
